- Tested on: UACC-257 melanoma
- Measurement Protocol: NCI-60 one-dose screen, 48 h (100 = growth as untreated, 0 = no growth, -100 = all killed)
- Experimental Setup: 10 µM unless noted
The panel holds about 83,000 compounds, 20% with a hit somewhere; the sample as a whole holds those more often.
Rule: y for growth not less than 80%, n for anything less.

Smiles String	Assigned Label
CCOC(CNC(=O)c1cccc([N+](=O)[O-])c1)OCC	y
Cc1nn(-c2ccccc2)c(N2CCOCC2)c1-c1nc2ccc([N+](=O)[O-])cc2[nH]1	y
CCn1cc(-c2cc(-c3ccc(Cl)cc3)nc(N)n2)c(-c2ccc(Br)cc2)n1	n
CCOC(=O)c1cc(C(=O)c2ccc(OC)c(OC)c2)n2ccc(-c3ccccn3)cc12	n
Cc1cc(NN=C(c2ccc(O)cc2)c2ccc(O)cc2)c([N+](=O)[O-])cc1[N+](=O)[O-]	n

====

- Tested on: SK-OV-3 ovarian
- Measurement Protocol: NCI-60 one-dose screen, 48 h
- Experimental Setup: 10 µM unless noted
- Method: Growth inhibition of the SK-OV-3 human tumor cell line is measured as a screen for anti-cancer activity. Cells are grown in 96 well plates and exposed to the test compound for 48 hours. Compounds are tested at a single concentration, which is 10^-5 M for most compounds. The reported endpoint is percent growth (GI% or GIPRCNT), where numbers from 0 - 100% represent growth inhibition, and numbers from -100% - 0 represent cell death. For example, a value of 40 represents 60% growth inhibition. […]
About 83,000 compounds went through this panel and 20% of them were active in at least one assay; those are over-represented in the sample as a whole. Calls of active or inactive are those of the source. Rule for the calls: active = growth percent below 10; inactive = the rest.
Outcomes: active, inactive

Compound	Assigned Label
CN(C)CCOc1ccc(/C(=C(/CCCl)c2ccccc2)c2ccccc2)cc1	inactive
O=C(Nc1ccc(Nc2ccncc2)cc1)c1ccc([N+](=O)[O-])cc1	inactive
N#Cc1ccc(-c2ccc(COc3ccc(CC4SC(=O)NC4=O)cc3)cc2)cc1 (configuration not stated)	inactive
Clc1ccccc1/C=N\Nc1ccccn1	inactive
CN(C)c1ccc(N=Nc2ccc3ccccc3c2)cc1	inactive
COc1ccc(C=C2c3ccccc3-c3ccccc32)cc1	inactive
CSc1nc(=S)c2nc(SC)n(-c3ccccc3)c2[nH]1	inactive
COc1ccc(C(=O)CSc2nccc(Nc3ccc(C(=O)O)cc3)n2)cc1	inactive
O=C(O)CC1CCCCC1c1ccccc1 (configuration not stated)	inactive
Cc1ccc(S(=O)(=O)Nc2ccccc2)cc1N	inactive
CCNc1cc2c(cc1Br)-c1ccccc1C2=O	inactive
COc1ccc(/C=C/C=C\C(=O)c2ccc(-n3ccnc3)cc2)cc1	inactive
CCOC(=O)c1cc(C(=O)c2ccc(OC)c(OC)c2)n2ccc(-c3ccccn3)cc12	active
Nc1cc(Cl)cc2cccnc12	inactive
O=C(CSc1nc2ccc([N+](=O)[O-])cc2[nH]1)Nc1ccc(F)c(Cl)c1	inactive
CCCCCC1CCCCN1C(=O)OCCCC (configuration not stated)	inactive
C[C@H]1[C@H](C)CC[C@]2(C(=O)N3CCN(C)CC3)CC[C@]3(C)C(=CC[C@@H]4[C@@]5(C)C/C(=C/c6ccco6)C(=O)C(C)(C)[C@@H]5CC[C@]43C)[C@H]12	inactive
CC1(C)C(=O)/C(=C\c2cccnc2)C[C@]2(C)[C@H]3CC[C@@H]4[C@H]5[C@H](C(=O)/C=C/c6cccnc6)CC[C@]5(C(=O)O)CC[C@@]4(C)[C@]3(C)CC[C@@H]12	active
CCCCOC(=O)c1c(C)[nH]c(/C=C2\N=C(c3ccc[nH]3)C=C2OC)c1C	inactive
COc1ccc(C(C(=O)O)c2ccc(OC)cc2)cc1	inactive
COc1cc2c(cc1OC(C)=O)C(=O)CCCC2	inactive
N#Cc1c(Cl)nc(SCC2CO2)nc1-c1ccccc1 (configuration not stated)	inactive
